Target: Integrin alpha-4 (Homo sapiens) (UniProt P13612)
Sequence (P13612 whole entry, looked up): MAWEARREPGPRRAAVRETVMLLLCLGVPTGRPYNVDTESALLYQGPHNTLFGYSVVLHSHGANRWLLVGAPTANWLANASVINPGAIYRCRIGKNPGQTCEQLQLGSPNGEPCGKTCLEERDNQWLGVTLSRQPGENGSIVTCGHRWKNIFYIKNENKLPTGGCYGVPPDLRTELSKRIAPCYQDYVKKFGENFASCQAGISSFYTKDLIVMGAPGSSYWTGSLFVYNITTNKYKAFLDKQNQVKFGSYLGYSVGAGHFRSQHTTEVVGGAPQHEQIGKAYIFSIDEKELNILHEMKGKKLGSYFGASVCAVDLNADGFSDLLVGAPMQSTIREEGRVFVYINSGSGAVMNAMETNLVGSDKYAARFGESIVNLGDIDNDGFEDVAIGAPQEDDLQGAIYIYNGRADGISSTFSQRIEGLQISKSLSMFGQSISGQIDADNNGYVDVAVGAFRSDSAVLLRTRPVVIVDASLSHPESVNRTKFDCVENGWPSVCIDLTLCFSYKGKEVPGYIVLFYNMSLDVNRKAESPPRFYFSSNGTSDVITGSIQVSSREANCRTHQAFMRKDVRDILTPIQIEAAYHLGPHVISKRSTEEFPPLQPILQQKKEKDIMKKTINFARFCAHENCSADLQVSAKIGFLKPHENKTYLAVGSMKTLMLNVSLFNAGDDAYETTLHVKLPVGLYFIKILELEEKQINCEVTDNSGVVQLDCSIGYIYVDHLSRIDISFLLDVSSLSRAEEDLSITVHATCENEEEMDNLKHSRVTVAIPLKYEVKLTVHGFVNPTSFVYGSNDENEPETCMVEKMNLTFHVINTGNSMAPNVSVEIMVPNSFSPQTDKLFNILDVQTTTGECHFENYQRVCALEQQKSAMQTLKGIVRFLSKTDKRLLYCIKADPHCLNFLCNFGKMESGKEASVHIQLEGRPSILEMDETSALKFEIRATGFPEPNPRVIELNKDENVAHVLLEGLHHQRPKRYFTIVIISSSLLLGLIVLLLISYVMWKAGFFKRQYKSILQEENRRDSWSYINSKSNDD
Assay: blockers of LDV-FITC ligand binding on VLA-4 – Jurkat cells, Mn2+ activated, primary screen (AID 529);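 note: 0% = Mn2+ stimulated cells lacking compound and 100% = ligand binding without Mn2+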
Details: LDV-FITC binding with Mn2+, flow cytometry, stronger effect = higher value, 100% = Mn2+-driven binding gain fully reversed, screened at 10 µM (by protocol)
The whole screen tested about 24,000 compounds, of which about 50 (0.2%) were called active. Another 9% or so got no clear call; they are omitted. The full list was thinned out, with actives kept by preference.
metric_name: inhibition (%)
Give bare numbers, in %.

Observe how each entry below is paired with its result.
molecule | unit_annotation | inhibition
c1ccc(CCn2nnnc2CN2CCN(C3CCCC3)CC2)cc1 | % | -4.5
CCOC(=O)c1c(NC(=O)c2cccs2)sc(C)c1C | % | -11.5
O=C(CN1C(=O)CCS(=O)(=O)c2ccccc21)NCc1ccc(F)cc1 | % | -3
CC(NC(=O)CN1CCN(Cc2ccc(Cl)cc2)C1=O)c1ccc2c(c1)OCCO2 (stereo unspecified) | % | 4

Give inhibition for each of the items listed below.
1. O=C(Nc1nc2ccc(S(=O)(=O)N3CCCC3)cc2s1)C1CCCO1 (stereo unspecified)
2. CCCCC(CC)C(=O)Nc1ccc(Cl)cn1 (stereo unspecified)

Output line:
[-33.5, -17.5]

====

Field: inhibition. Provide a value for each of the compounds that follow.
Biological target: Integrin alpha-4 (Homo sapiens) (UniProt P13612)
Assay: blockers of LDV-FITC ligand binding on VLA-4 – Jurkat cells, Mn2+ activated, primary screen (AID 529);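 note: 0% = Mn2+ stimulated cells lacking compound and 100% = ligand binding without Mn2+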
Conditions: LDV-FITC binding with Mn2+, flow cytometry, stronger effect = higher value, 100% = Mn2+-driven binding gain fully reversed, screened at 10 µM (by protocol)
The campaign covered roughly 24,000 compounds. About 50 (0.2%) were called active. About 9% were inconclusive and are not listed. The sample holds actives, similar compounds and a random draw of the others, so the mix is not that of the screen.
Numbers only, in %.

Observe how each entry below is paired with its result.
compound | unit_annotation | inhibition
CCOC(=O)N1CCN(C(=O)c2ccc3nc4cc(Cl)ccc4c(=O)n3c2)CC1 | % | 6.7
COc1ccc(NC(=O)C2CCCN(S(=O)(=O)c3cccc4cccnc34)C2)cc1 (stereo not given) | % | 0
O=C(c1ccccc1)c1cccn1CC(=O)N1CCN(c2ccc(F)cc2)CC1 | % | 49
Cc1nc(NC(=O)CCC(=O)O)sc1C(=O)N(C)C | % | -12
Cc1ccc2c(c1)N(CCCC(=O)NCc1cccnc1)C(=O)CO2 | % | -5

Give inhibition for each of the items listed below.
1. CCCCOC(=O)Nc1nccs1
2. O=C(NCc1ccco1)c1cccn2c(=O)c3cc(Br)ccc3nc12
3. COCCn1c(=O)[nH]c2cc(C(=O)NCc3cccnc3)ccc2c1=O
4. O=c1ccn(Cc2ccccc2Cl)cc1

Output line:
1: 15.3; 2: -34; 3: -22; 4: -16

Give inhibition for each of the items listed below.
1. CCOC(=O)N1CCC(NC(=O)c2cnn3ccccc23)CC1
2. COc1ccc(Cl)cc1S(=O)(=O)N1CCN(CC(=O)C(C)(C)C)CC1
3. O=C(Nc1ccn(Cc2ccc(F)cc2)n1)c1ccncc1
4. CCCOC(=O)c1[nH]c2c(c1C)C(=O)CC(c1cc(OC)c(OC)c(OC)c1)C2 (stereo not given)
5. CCN(CC)CCNC(=O)Cn1cnc2sc(C)c(S(=O)(=O)N3CCOCC3)c2c1=O

Output line:
1. 2.5
2. 14
3. 4
4. -2
5. 0

Give inhibition for each of the items listed below.
1. COC(=O)c1ccc2c(=O)n(CC3CCCO3)c(=S)[nH]c2c1 (stereo not given)
2. CCOC(=O)c1oc2ccccc2c1NC(=O)c1cccs1
3. C=C1c2cc(CC)ccc2NC(=O)N1c1ccc(C)cc1
4. O=C(CN1CCOCC1)Nc1c2c(nc3c1CCC3)CCC2

Output line:
[-11, 17, -2, -12]

Give inhibition for each of the items listed below.
1. O=C(O)C1CCN(S(=O)(=O)N2CCOCC2)CC1
2. Cc1ccc(NC(=O)CN(C)S(=O)(=O)c2cnc[nH]2)cc1C
3. COc1ccccc1C(=O)NCCn1cc(SCC(=O)NCc2ccco2)c2ccccc21
4. CCOC(=O)c1sc(=S)n(-c2cccc(OC)c2)c1N
5. Cc1ccc(N2C(=O)c3oc4ccccc4c(=O)c3C2c2cccnc2)nc1 (stereo not given)

Output line:
0
1
-4
-4
-22

====

Target: Integrin alpha-4 (Homo sapiens) (UniProt P13612)
Assay: blockers of LDV-FITC ligand binding on VLA-4 – Jurkat cells, Mn2+ activated, primary screen (AID 529);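 note: 0% = Mn2+ stimulated cells lacking compound and 100% = ligand binding without Mn2+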
Settings: LDV-FITC binding with Mn2+, flow cytometry, stronger effect = higher value, 100% = Mn2+-driven binding gain fully reversed, screened at 10 µM (by protocol)
About 50 (0.2%) of roughly 24,000 compounds were called active. About 9% were inconclusive and are not listed. The sample holds actives, similar compounds and a random draw of the others, so the mix is not that of the screen.
Field: inhibition. Provide a value for each of the molecules that follow.
One number for each entry, in %.

molecule | unit_annotation | inhibition
O=C(Cn1nc(Cc2cccnc2)c2ccccc2c1=O)NCC1CCCO1 (stereo unspecified) | % | -1
COc1ccc(N2C(=O)c3cccc4cccc(c34)C2=O)nn1 | % | -1.5
O=S(=O)(Nc1ccccn1)c1ccc(Oc2ccccc2)cc1 | % | -1.3
COc1ccc(C2CC(c3ccc(Cl)cc3Cl)Nc3nc(N)nn32)cc1OC (stereo unspecified) | % | -5
CCCC(=O)N1c2ccccc2NC2=C(C(=O)CCC2)C1c1ccc(F)cc1 (stereo unspecified) | % | -5.3

Give inhibition for each of the items listed below.
1. CCOC(=O)N1CCC(NC(=O)CN2C(=O)COc3ccc(C(C)(C)C)cc32)CC1
2. C=CCSc1nnc(Cn2c(=O)sc3ccccc32)n1C
3. CCC(C)(C(=O)NC1CCCC1)N(C(=O)CNC(C)=O)c1ccc(C)cc1 (stereo unspecified)
4. CN(C)CCCNC(=O)c1ccc2[nH]c3ccccc3c2c1
5. COc1ccccc1N1CCN(Cc2nnnn2CCc2ccccc2)CC1

Output line:
[7, 5, -12, -6, -8]

Input line: inhibition of O=S1(=O)CCN2C(=N1)SC1=C2CCN(Cc2ccccc2)C1 on Integrin alpha-4 (Homo sapiens) (UniProt P13612)?
Output line: 4

====

Biological target: Integrin alpha-4 (Homo sapiens) (UniProt P13612)
Assay: blockers of LDV-FITC ligand binding on VLA-4 – Jurkat cells, Mn2+ activated, primary screen (AID 529);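 note: 0% = Mn2+ stimulated cells lacking compound and 100% = ligand binding without Mn2+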
Conditions: LDV-FITC binding with Mn2+, flow cytometry, stronger effect = higher value, 100% = Mn2+-driven binding gain fully reversed, screened at 10 µM (by protocol)
Out of some 24,000 compounds screened, about 50 (0.2%) were called active. Another 9% or so got no clear call; they are omitted. For the sample, actives were picked, then their nearest neighbours and some compounds at random.
Field: inhibition. Provide a value for each of the compounds that follow.
One number for each entry, in %.

Give inhibition for each of the items listed below.
1. CCOc1ccc(N(CC(=O)OC)S(=O)(=O)c2c(C)noc2C)cc1
2. CN(C)S(=O)(=O)c1cccc(C(=O)Nc2cccnc2)c1
3. OCCNCCCCOc1ccccc1F

Output line:
[13, -37.5, -13.5]

Give inhibition for each of the items listed below.
1. Cc1ccc(C)c(N(CC(=O)NCc2ccco2)C(=O)CCC(=O)Nc2ccccn2)c1
2. CCOC(=O)N1CCN(C(=O)c2cnc3n(c2=O)CCS3)CC1
3. O=C(O)c1cccc2c1C(=O)N(C1CCCCC1)C2

Output line:
1. -3
2. -8
3. -16

Give inhibition for each of the items listed below.
1. Cc1cccc2c1N(CC(=O)OC(C)C)C(=O)C2=O
2. CCN(CC)C(=O)N1CCN(C(=O)c2ccc(C)cn2)CC1
3. Cc1ccccc1C(=O)NCCN=C1NS(=O)(=O)c2ccccc21
4. O=C(NC1(C(F)(F)F)N=C2SCCN2C1=O)c1ccco1 (configuration not stated)

Output line:
[10.7, -8, -4, -21]

Give inhibition for each of the items listed below.
1. CC(NC(=O)COc1ccccc1)C(=O)NC1=NCCS1 (configuration not stated)
2. CCOC(=O)Cn1c2c(c(-c3ccccc3OC)cc1=O)CCCC2

Output line:
-18.5
16

====

Field: inhibition. Provide a value for each of the compounds that follow.
Target: Integrin alpha-4 (Homo sapiens)
Assay: blockers of LDV-FITC ligand binding on VLA-4 – Jurkat cells, Mn2+ activated, primary screen (AID 529);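 note: 0% = Mn2+ stimulated cells lacking compound and 100% = ligand binding without Mn2+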
Settings: LDV-FITC binding with Mn2+, flow cytometry, stronger effect = higher value, 100% = Mn2+-driven binding gain fully reversed, screened at 10 µM (by protocol)
The whole screen tested about 24,000 compounds, of which about 50 (0.2%) were called active. About 9% were inconclusive and are not listed. The sample holds actives, similar compounds and a random draw of the others, so the mix is not that of the screen.
One number for each entry, in %.

Observe how each entry below is paired with its result.
compound | inhibition (%)
CCn1ncc(C2=NOC(C(=O)N3CCN(c4ccccc4)CC3)C2)c1C (configuration not stated) | 7
O=C(CC(Cc1ccccc1)C(=O)O)NCCc1ccc2c(c1)OCO2 (configuration not stated) | -16
Cn1c(=O)[nH]c(=O)c2c1nc(NCCCn1ccnc1)n2Cc1cccc(Br)c1 | -22.5
CCCS(=O)(=O)N1CCN(C(=O)c2cccs2)CC1 | -15
O=C(NCc1ccccn1)c1cnc2sccn2c1=O | -2
COc1ccc(C2CC(c3ccc(C)cc3)Nc3ncnn32)cc1 (configuration not stated) | -3.7

Moving on to the next compound.
Input line: Look up inhibition for this compound: COc1ccccc1CNC(=O)CCCn1c(=O)c2ccccc2n(CC(=O)NC2CCCC2)c1=O
Output line: -2

Source of measurements: PubChem BioAssay AID529
